- ASSAY_METHOD_TEXT: Cell Viability - LYMP2-006 (AID 978);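 also: cells exposed to compound for 24 hours; nearly all actives have a fitted effect of over 60% in size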
- CONDITION_DETAILS: LYMP2-006 lymphoblastoid cell viability, qHTS; series mostly up to 92.2 µM
- Text: NIH Chemical Genomics Center [NCGC] NIH Molecular Libraries Screening Centers Network [MLSCN] National Institutes of Environmental Health Sciences [NIEHS] National Toxicology Program [NTP] We have developed a 1536-well cell-based assay for quantitative high throughput screening (qHTS) against a number of cell lines to determine in vitro cytotoxicity of small molecules. […] 8. Detection; Luminescence; Viewlux plate reader […]
Records with an inconclusive call do not appear. The source made the active and inactive calls. Calls follow the shape of the dose curve; as a rule, active = well fitted cell-killing curve with a large enough effect; inconclusive = small, poorly fitted or top-dose-only effect; inactive = flat fitted curve, though single readings scatter.
Hi! Could you answer with just one of these? Yes (active), No (inactive)

See these solved cases before continuing.
CC[n+]1c(-c2ccccc2)c2cc(N)ccc2c2ccc(N)cc21    Yes
CN(C)C(=S)SSC(=S)N(C)C    Yes
CCCCCCCCCCCC[N+](C)(C)CCOc1ccccc1    Yes

Answer briefly: the call reported for COP(=O)(OC)OC=C(Cl)Cl in this assay. No

I'd appreciate the recorded outcome for O=C(CCl)c1ccc(Cl)cc1Cl from this test. Yes

Look up the recorded call for C[C@@H]1C[C@@H]([C@H](O)CC2CC(=O)NC(=O)C2)C(=O)[C@@H](C)C1 in this test. Yes
